Data provenance is patent US20240317792A1.

Test system: mouse colorectal cancer cell line CT26
METHOD_NOTES: Subcutaneously transplanted CT26 tumor growth inhibition
Type: in vivo, BALB/c ordinary mice
SETUP_CONDITIONS: CT26 in BALB/c mice; 10 mg/kg intraperitoneal once every 2 days for 20 days
Record form. Attribute: Average tumor weight. Fill in for each entry.
Give bare numbers, in g.

Before answering, review these 3 worked examples.
MOLECULE	READOUT_NUMBER
Nc1nc2c(ncn2C2OC3COP(=O)([O-])OC4C(COP(=O)([O-])OC2C3O)OC(n2cnc3c(N)ncnc32)C4O)c(=O)[nH]1.[Fe+2] (stereo not drawn) [[Fe(cGAMP)], ferrous cyclic dinucleotide]	0.301
Nc1nc2c(ncn2[C@@H]2O[C@@H]3COP(=O)([O-])O[C@H]4[C@@H](O)[C@H](n5cnc6c(N)ncnc65)O[C@@H]4COP(=O)([O-])O[C@@H]2[C@@H]3O)c(=O)[nH]1.[Li+].[Li+] [[Li2(cGAMP)], lithium cyclic dinucleotide]	0.675
Nc1nc2c(ncn2[C@@H]2O[C@@H]3COP(=O)([O-])O[C@H]4[C@@H](O)[C@H](n5cnc6c(N)ncnc65)O[C@@H]4COP(=O)([O-])O[C@@H]2[C@@H]3O)c(=O)[nH]1.[Mg+2] [[Mg(cGAMP)], magnesium cyclic dinucleotide]	0.635

Give me Average tumor weight for each of these molecules, listed below.
1. Nc1nc2c(ncn2[C@@H]2O[C@@H]3COP(=O)(O)O[C@H]4[C@@H](O)[C@H](n5cnc6c(N)ncnc65)O[C@@H]4COP(=O)(O)O[C@@H]2[C@@H]3O)c(=O)[nH]1 [cGAMP, 2′3′-cGAMP, reference compound]
2. Nc1nc2c(ncn2[C@@H]2O[C@@H]3COP(=O)([O-])O[C@H]4[C@@H](O)[C@H](n5cnc6c(N)ncnc65)O[C@@H]4COP(=O)([O-])O[C@@H]2[C@@H]3O)c(=O)[nH]1.[Zn+2] [[Zn(cGAMP)], zinc cyclic dinucleotide]
3. Nc1nc2c(ncn2C2OC3COP(=O)([O-])OC4C(COP(=O)([O-])OC2C3O)OC(n2cnc3c(N)ncnc32)C4O)c(=O)[nH]1.[Mn+2] (stereo not drawn) [[Mn(cGAMP)], manganese cyclic dinucleotide]

1. 0.712
2. 0.201
3. 0.258
